- Test system: transporter associated with antigen processing (TAP) (Homo sapiens, UniProt Q03518+Q03519)
- Assay procedure: Streptolysin O peptide transport assay
- Format: biochemical
pIC50: −log10 of the molar value. Ends that are not written are not given here.
// reported pIC50 per item
Quantity measured: pIC50

| Primary sequence | Quantity measured | Reported value |
| --- | --- | --- |
| PTLDKVLEV [PTLDKVLEV] | pIC50 | 3.76 |
| HPTLDKVLEV [HPTLDKVLEV] | pIC50 | 3.45 |
| KSADHPTLDKVLEV [KSADHPTLDKVLEV] | pIC50 | 3.99 |

###

- Test system: HLA-A*0201 molecules (Homo sapiens, UniProt P04439, D140Y/D185E/D98H/E176V/E277Q/G131W/G231S/I119V/I121R/I166T/I218V/L300P/L318F/N151K/N90K/P208A/P217A/Q86G/Q94H/R138H/R169H/T345S)
- Assay procedure: Class I peptide-binding affinity assay
pIC50: −log10 of the molar value. Ends that are not written are not given here.
Quantity measured: pIC50

| Primary sequence | Reported value |
| --- | --- |
| RTLDKVLEV [RTLDKVLEV] | 7.40 |
